Reference source: patent US20150010538A1

Biological target: T1, recombinant human CD25 (IL2-Rα) (human, UniProt P01589 22-213, limits assumed)
T1 construct: Bought recombinant soluble protein; also called IL2 receptor α chain; recombinant soluble human CD25
T1 sequence (looked up): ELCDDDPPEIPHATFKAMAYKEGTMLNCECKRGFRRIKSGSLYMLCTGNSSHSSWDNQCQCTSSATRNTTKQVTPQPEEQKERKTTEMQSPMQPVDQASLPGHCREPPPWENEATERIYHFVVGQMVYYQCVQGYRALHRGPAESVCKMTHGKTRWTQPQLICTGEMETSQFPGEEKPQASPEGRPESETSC
Assay: competitive ELISA on plate-coated CD25; competitor biotinylated daclizumab
MEASUREMENT_KIND: fold affinity over the parental antibody

Challenge: Requested read-out: fold affinity over the parental antibody. Entry: daclizumab VH variant RKGFN (antibody, IgG1, name in Kabat numbering, V domains shown, VH library clone, soluble IgG1) VH: QVQLVQSGAEVKKPGSSVKVSCKASGYTFTSYRMHWVRQAPGQGLEWIGYIRPKGGFTNYNQKFKDKATITADESTNTAYMELSSLRSEDTAVYYCARGGGVFDYWGQGTLVTVSS VL: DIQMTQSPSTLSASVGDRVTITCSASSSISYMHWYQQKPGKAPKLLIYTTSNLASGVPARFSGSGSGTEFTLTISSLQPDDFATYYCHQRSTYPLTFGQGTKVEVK
Response given: ~10 fold
